- test-summary: Primary qHTS for inhibitors of nuclear receptor binding SET domain protein 2 (NSD2) in an RCH-ACV wild type WT cells (2C) (AID 1645877); further: nearly all actives have a fitted effect of over 70% in size; further: potency means the concentration at half of the fitted maximal effect
- settings: RCH-ACV (leukaemia line) NSD2 WT (2C) viability, CellTiter-Glo, 72 h; series mostly up to 44.9 µM
Results filed as inconclusive are left out. Active and inactive are the calls of the source. The call rests on the fitted dose curve; in most records, active means well fitted inhibition curve with a large enough effect; inconclusive means small, poorly fitted or top-dose-only effect; inactive means no such curve, though single readings can be large or run the other way.
measure: Potency

N=c1nc2n(cc1F)C1OC(CO)C(O)C1O2 (stereo not drawn)    18.3 nM (active)
CC1(C)CC2C=C(C(=O)O)C3COC(=O)C(O)(CO)C23C1 (stereo not drawn)    inactive
COC(=O)C1=CO[C@@H](O[C@@H]2O[C@H](CO)[C@@H](O)[C@H](O)[C@H]2O)[C@H]2[C@@H]1CC(OC)O[C@@H]2C (stereo partly drawn)    inactive

----------
- Test system: Zika virus NS2B-NS3 protease (unlinked complex)
- test-summary: Primary screen GU Rhodamine qHTS for Zika virus inhibitors: Unlinked NS2B-NS3 protease assay (AID 1347159); further: nearly all actives have a fitted effect of over 60% in size; further: potency means the concentration at half of the fitted maximal effect
- settings: Recombinant ZIKV NS2B-NS3 protease, Rhodamine110 substrate fluorescence; series mostly up to 107 µM
Results filed as inconclusive are left out. Active and inactive are the calls of the source. The call rests on the fitted dose curve; in most records, active means well fitted inhibition curve with a large enough effect; inconclusive means small, poorly fitted or top-dose-only effect; inactive means no such curve, though single readings can be large or run the other way.
measure: Potency

NC[C@@](O)(c1ccc(Cl)cc1)c1ccc(-c2cn[nH]c2)cc1    inactive
CC1=C(C(=O)OCc2ccccc2)C(c2ccc(-c3ccccc3)cc2)NC(=O)N1CCCCCC(=O)O (centres undefined)    3.16 µM (active)
CCCC(=O)O[C@@H]1[C@@H]2[C@@H](OC(C)=O)[C@]3(C)C(=O)[C@H]4[C@@H](OC(C)=O)C(C)(C)C[C@H]4[C@]3(C)C(=O)[C@@]2(OC(C)=O)C[C@@H]1C    inactive
C/C1=C\CC[C@H](C)CCO[C@@H]2O[C@H](CO[C@@H]3OC[C@](O)(COC1=O)[C@H]3O)[C@@H](O)[C@H](O)[C@H]2O    inactive

----------
Below, each entry is listed alongside its reported activity.
- measured-on: Phenylethanolamine N-methyltransferase (Homo sapiens)
- test-summary: Confirmatory Screen for Target Class Profiling of Small Molecule Inhibitors of Methyltransferases (AID 1745852)
- settings: MTase-Glo luminescence, SAH detection, recombinant enzyme; measured here: PNMT max response; stronger effect = lower value
State the answer as a number, implicitly in %.

COc1ccc(-c2cnc3ccc(NCc4ccc(S(N)(=O)=O)cc4)nn23)cc1OC    -27.8
O=C(O)c1ccc(CN2CCC(CN[C@@H]3C[C@H]3c3ccccc3)CC2)cc1    5.38
CCN(CC)c1ccc2c(O)c(C=Nc3ccc(CC(=O)O)c(-c4c5c(nc6ccccc46)CCC(C(=O)NN)C5)c3)c(=O)oc2c1 (stereo unspecified)    -22
CC1(C)CC[C@]2(C(=O)O[C@@H]3O[C@H](CO)[C@@H](O)[C@H](O)[C@H]3O)CC[C@]3(C)C(=CCC4[C@@]5(C)C[C@@H](O)[C@H](O)[C@@](C)(CO)C5CC[C@]43C)C2[C@@H]1O (stereo partly specified)    -1.38
COC(=O)C1=CO[C@@H](O[C@@H]2O[C@H](CO[C@@H]3O[C@H](COC(=O)/C=C/c4cc(OC)c(O)c(OC)c4)[C@@H](O)[C@H](O)[C@H]3O)[C@@H](O)[C@H](O)[C@H]2O)[C@@H]2C(CO)=CC[C@H]12    -1.68
C=C(C)C1Cc2cc(C(=O)OC3OC(CO)C(O)C(O)C3O)ccc2O1 (stereo unspecified)    -3.74
C=C(C(=O)O)[C@@H]1CC[C@@]2(C)CC[C@H](O)[C@@]2(C(C)=O)C1    -3.81
O=C(/C=C/c1ccccc1)OC[C@]12O[C@H]1[C@@H](O)[C@@H]1C=CO[C@@H](O[C@@H]3O[C@H](CO)[C@@H](O)[C@H](O)[C@H]3O)[C@@H]12    -4.62
COc1cc(C(=O)OC[C@H]2O[C@@H](Oc3ccccc3/C=C/C(=O)O)[C@H](O)[C@@H](O)[C@@H]2O)cc(OC)c1OC    -3.5
COc1ccc(CCO[C@@H]2O[C@H](CO[C@@H]3OC[C@H](O)[C@H](O)[C@H]3O)[C@@H](O)[C@H](O)[C@H]2O)cc1    1.06

Bench note: what activity did CC(C)[C@@](C)(O)[C@@H]1CN(c2nc(-c3[nH]nc4ncccc34)c(F)cc2Cl)CCN1 show? -65.1

----------
- Test system: CAOV3
- test-summary: Primary qHTS to identify gynecologic anti-cancer compounds using libraries of approved drugs and bioactive compounds (AID 1345084); further: nearly all actives have a fitted effect of over 55% in size
- settings: Gynecologic cancer cell panel viability, ATPlite luminescence, 48 h; series mostly up to 57.5 µM
- From the text: National Center for Advancing Translational Sciences [NCATS] Assay Overview: Chemotherapeutic drug responses vary from cancer to cancer and from patient to patient. […] ATPlite is a luminescence based assay reliant on the conversion of a luciferase substrate to light in the presence of ATP. As a cytotoxic compound will suppress growth and decrease the number of cells, the concentration of ATP will decrease, and less light signal will be detected in the well. […]
Records with an inconclusive call do not appear. Calls of active or inactive are those of the source. The call rests on the fitted dose curve; in most records, active means well fitted cell-killing curve with a large enough effect; inconclusive means small, poorly fitted or top-dose-only effect, or effect the other way; inactive means flat fitted curve, though single readings scatter.
I would appreciate it if you answered using one of these outcomes: true (active), false (inactive)

CC[C@@H](O)C[C@@H]1C(C)=C[C@@H]2CCCC[C@@H]2[C@@]1(C)C(=O)O    false
O=C(OCC1=CC(O)C2C=CO[C@@H](O[C@@H]3O[C@H](CO)[C@@H](O)[C@H](O)[C@H]3O)C12)c1ccccc1 (some centres not stated)    false
Nc1nc2c(c(N3CCNCC3)n1)CCC1=C2[C@@H]2CCCC[C@@H]2O1    false
C#CCN(Cc1cc2c(=O)n(C)c(CN3CCN(C)CC3)nc2cc1Cl)c1ccc(C(=O)NCc2cccnc2)cc1    true
OCC(CO[C@@H]1O[C@H](CO)[C@@H](O)[C@H](O)[C@H]1O)c1ccc2c(c1)OCO2 (some centres not stated)    false
Cc1c[nH]c2nccc(Oc3c(F)cc(Nc4cc(Cl)nc(N)n4)cc3F)c12    false

Recorded test call requested for CNC12CC3C[C@@](C)(C1)C[C@](C)(C3)C2 false

Recorded test call requested for COc1cc(O)c2c(c1)C1=CC(O)C(O)CC1(C)OC2=O (configuration not stated) false

Recorded test call requested for COc1ccc(C[C@H](N)C(=O)N[C@@H]2[C@H](O)[C@H](n3cnc4c(N(C)C)ncnc43)O[C@@H]2CO)cc1 true

----------
- Tested on: HEK293
- test-summary: Cytotoxic Profiling of Annotated Libraries Using Quantitative High-Throughput Screening (AID 1296008); further: nearly all actives have a fitted effect of over 60% in size
- settings: Five cell lines viability, CellTiter-Glo ATP luminescence, 48-72 h
Records with an inconclusive call do not appear. Calls of active or inactive are those of the source. The call rests on the fitted dose curve; in most records, active means well fitted inhibition curve with a large enough effect; inconclusive means small, poorly fitted or top-dose-only effect; inactive means flat fitted curve, though single readings scatter.
I would appreciate it if you answered using one of these outcomes: t for active, f for inactive

Reference set, count: 3
Cc1ccc(S(=O)(=O)Nc2ccccc2N2CCCCC2)s1    t
CCOCCOC(=O)/C=C/c1ccc(OC)cc1    f
COc1ccc(-c2cnc(-c3cccc4c3-c3ccccc3C4=O)o2)cc1    t

Switching to the query record.
Recorded test call requested for NC(=O)[C@H]1CCS[C@@H]2C[C@]3(CCCN3C(=O)Cc3ccc(NC(=O)COc4ccc(Cl)cc4Cl)cc3)C(=O)N12 t

----------
- System: HEK293
- test-summary: Cytotoxic Profiling of Annotated Libraries Using Quantitative High-Throughput Screening (AID 1296008); further: nearly all actives have a fitted effect of over 60% in size; further: potency means the concentration at half of the fitted maximal effect
- settings: Five cell lines viability, CellTiter-Glo ATP luminescence, 48-72 h
Records with an inconclusive call do not appear. Activity calls are given as the source filed them. Calls follow the shape of the dose curve; as a rule, active = well fitted inhibition curve with a large enough effect; inconclusive = small, poorly fitted or top-dose-only effect; inactive = flat fitted curve, though single readings scatter.
measure: Potency

Record excerpt, results attached:
Cc1ccccc1-n1c([C@H](C)Nc2nc(N)nc3nc[nH]c23)nc2cccc(C)c2c1=O    16.4 µM (active)
COc1ncc(Nc2ncc([C@@H](C)N3CCN(S(C)(=O)=O)CC3)cc2-c2nc(C)nc(N)n2)cc1F    0.259 µM (active)
CN(C)C/C=C/C(=O)Nc1cccc(C(=O)Nc2ccc(Nc3nccc(-c4cccnc4)n3)cc2)c1    5.8 µM (active)

Bench note: what Potency did COc1cc2c(NC3CCN(CC4CCCCC4)CC3)nc(N3CCCN(C(C)C)CC3)nc2cc1OCCCN1CCCCC1 show? 3.26 µM (active)

----------
- System: Zika virus NS2B-NS3 protease (linked construct)
- test-summary: Primary screen NINDS Rhodamine qHTS for Zika virus inhibitors (AID 1347160); further: nearly all actives have a fitted effect of over 55% in size
- settings: purified NS2B-NS3 protease, Rhodamine110 substrate fluorescence; series mostly up to 57.1 µM
Results filed as inconclusive are left out. The source made the active and inactive calls. Calls come from the whole dose curve; as a rule, active = well fitted inhibition curve with a large enough effect; inconclusive = small, poorly fitted or top-dose-only effect; inactive = no such curve, though single readings can be large or run the other way.
I would appreciate it if you answered using one of these outcomes: 1 for active, 0 for inactive

Recorded test call requested for Cc1ccc([N+](=O)[O-])cc1S(=O)(=O)N(C)/N=C/c1cnc2ccc(Br)cn12 0

Recorded test call requested for CC(=O)O[C@@](C)(C(=O)/C=C/C(C)(C)O)[C@H]1[C@H](O)C[C@@]2(C)[C@@H]3CC=C4[C@@H](C=C(O)C(=O)C4(C)C)[C@]3(C)C(=O)C[C@]12C 0

Recorded test call requested for COc1ccc(C2COc3cc(O)ccc3C2)c(O)c1 (configuration not stated) 0

Recorded test call requested for Cc1csc(NC(=O)c2ccc(COc3cccc(Cl)c3)o2)n1 0

Recorded test call requested for CC(=O)O[C@]1(C(C)=O)CC[C@H]2[C@@H]3C[C@H](C)C4=CC(=O)C=C[C@]4(C)[C@@]3(F)[C@@H](O)C[C@@]21C 0

Recorded test call requested for C=C(C)[C@@H]1CC[C@]2(C)CC[C@]3(C)[C@H](CC[C@@H]4[C@@]5(C)CC[C@@H](O)C(C)(C)[C@@H]5CC[C@]43C)[C@@H]12 0

Recorded test call requested for C[C@@]12CC[C@@H]3[C@@](CC[C@H]4[C@@]3(C)CCC[C@@]4(C)C(=O)O)(CC1=O)C2 0

Recorded test call requested for CC1(C)CC[C@@]2(C(=O)O[C@@H]3O[C@H](CO)[C@@H](O)[C@H](O)[C@H]3O)C(C1)C1=CCC3[C@@]4(C)CC[C@@H](O[C@@H]5O[C@H](C(=O)O)[C@@H](O[C@@H]6OC[C@@H](O)[C@H](O)[C@H]6O)[C@H](O[C@@H]6OC[C@](O)(CO)[C@H]6O)[C@H]5O)C(C)(C)C4CC[C@@]3(C)[C@]1(C)C[C@H]2O (some centres not stated) 0

Recorded test call requested for CCc1c(C)nc2c(-c3cnn(-c4cc(CO)ccn4)c3)c[nH]n2c1=O 0
